- subject-of-test: canine CD3 on canine T cells (canine PBMC) (canine, UniProt P27597 22-202)
- Sequence (P27597 22-202 limits assumed, chain 1 of 3): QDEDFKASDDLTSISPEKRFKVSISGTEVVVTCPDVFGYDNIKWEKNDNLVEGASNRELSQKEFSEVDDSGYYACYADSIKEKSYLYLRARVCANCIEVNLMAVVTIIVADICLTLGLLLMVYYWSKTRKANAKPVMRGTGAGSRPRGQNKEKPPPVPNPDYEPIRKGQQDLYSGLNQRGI
- Sequence (chain, as listed by the source limits assumed, chain 2 of 3): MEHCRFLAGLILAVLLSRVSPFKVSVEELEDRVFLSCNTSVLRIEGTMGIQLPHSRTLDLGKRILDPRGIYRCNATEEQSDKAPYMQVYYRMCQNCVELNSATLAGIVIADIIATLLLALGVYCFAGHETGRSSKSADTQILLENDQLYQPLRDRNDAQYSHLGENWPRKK
- Sequence (chain, as listed by the source limits assumed, chain 3 of 3): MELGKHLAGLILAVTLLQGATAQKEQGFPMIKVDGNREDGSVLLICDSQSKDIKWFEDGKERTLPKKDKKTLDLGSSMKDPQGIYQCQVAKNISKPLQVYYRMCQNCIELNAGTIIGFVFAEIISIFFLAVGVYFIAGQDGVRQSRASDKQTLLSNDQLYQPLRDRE
- protocol-summary: cell-based or functional assay
Would you mind telling me the reported IFNy Concentration pg/ml, Day 9, PB of each entry?
Reply numerically in pg/mL, unit not repeated.

In one line, give reported IFNy Concentration pg/ml, Day 9, PB of the entry PMX191 (monospecific anti-canine CD3, canine IgG-B effector function deficient Fc) (antibody, V domains shown) VH: EVQLVESGGDLVKPAGSLRLSCVASGFTFSDYSMSWVRQGPEKGLQLVAGMNSDGSTTYYTDAVRGRFTISRDNAKNTMYLQMNSLRDEDTAIYYCAKGAAAPDYWGQGTLVTVSS VL: SYELTQPPSVNVTLRETAHITCGGDRIGSKYVQWIQQIPGQAPVVIIYKDNNRPTGIPERFSGANSGNTATLTISGALAEDEADYYCQVGDNYTWVFGEGTQLTVL .
744

In one line, give reported IFNy Concentration pg/ml, Day 9, PB of the entry PMX196 (monospecific anti-canine CD3, canine IgG-B effector function deficient Fc) (antibody, V domains shown) VH: ELTLQESGPGLVKPSQTLSLTCVVSGGSVTSSYYWNWIRQRPGRGLEWMGYWTGSTIYNPAFQGRISITADTAKNQFSLQLSSMTTEDTAVYFCVRERRMAFGSWGQGTLVIVSS VL: SYVLTQLPSKSVTLKQPAHITCGGDNIGRKSVHWYQQKLGQAPVLIISFDNNRPTGIPERFSGANSGNTATLTISGALAEDEADYYCQVWDSSAKASVFGGGTHLTVL .
2080
